Consider the following binders; for each one, report its Relative binding activity, %.
# system_under_test: T1, Biotin-huCGRPaSA (human, not fully specified; biotin (position not given))
# T1 construct: exact construct ('aSA') not explained; also called Biotin CGRPaSA; full-length (1-37) CGRP
# T1 peptide: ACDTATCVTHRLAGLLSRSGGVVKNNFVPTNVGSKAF
# experiment_description: ELISA, supernatant; relative to chimeric C245
Give the quantity in %, number only.

Query: Please supply the value of reported Relative binding activity, % for the item hu199 (antibody, V domains shown, 3H10 HC-1/1A2 LC2-4) VH: QVQLVQSGAEVKKPGASVKVSCKASGYTFTDYNMHWVRQAPGQGLEWMGYIYPYNGHTVYNQKFRNRVTMTVDTSSSTAYMELRSLRSDDTAVYYCAKEGLGGYWGQGTLVTVSS VL: DIQLTQSPSFLSASVGDRVTITCKASQNIDYDGYAYLNWYQQKPGKAPKVLIYSVFNLESGVPSRFSGSGSGTEFTLTISSLQPEDFATYYCQQSNEFPYTFGQGTKLEIK
Response: 41

Query: Identify the reported Relative binding activity, % for the following entry. hu17 (antibody, V domains shown, 1B2 HC-2/1A2 LC2-4) VH: QVQLVQSGAEVKKPGASVKVSCKASGYTFTDYNMHWVRQAPGQRLEWMGYIFPYNGVAVYNRKFRSRVTLTVDTSSSTAYMELSSLRSEDTAVYYCAREGLGGYWGQGTLVTVSS VL: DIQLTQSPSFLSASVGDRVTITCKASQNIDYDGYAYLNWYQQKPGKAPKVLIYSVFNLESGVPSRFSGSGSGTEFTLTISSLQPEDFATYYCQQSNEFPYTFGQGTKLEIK
Response: 35

Query: Let me know recorded Relative binding activity, % for hu159 (antibody, V domains shown, 3E5 HC-2/1A2 LC2-3) VH: QVQLVQSGAEVKKPGASVKVSCKASGYTFTDYNMHWVRQAPGQRLEWMGYISPYNGGTAYNQKFKFRVTLTVDTSSSTAYMELSSLRSEDTAVYYCAREGLGGYWGQGTLVTVSS VL: EIVLTQSPATLSLSPGERATLSCKASQNIDYDGYAYLNWYQQKPGQAPRVLIYSVFNLESGIPARFSGSGSGTDFTLTISSLEPEDFAVYYCQQSNEFPYTFGQGTKLEIK , thanks.
Response: 26

Query: Given the binder hu28 (antibody, V domains shown, 1F5 HC-1/1A2 LC2-2) VH: QVQLVQSGAEVKKPGASVKVSCKASGYTFIDFNMHWVRQAPGQRLEWMGYIYPYNGDVVYNQNFTNRVTLTVDTSSSTAYMELSSLRSEDTAVYYCAREGLGGYWGQGTLVTVSS VL: DIVLTQSPASLAVSPGQRATITCKASQNIDYDGYAYLNWYQQKPGQPPKVLIYSVFNLESGVPARFSGSGSGTDFTLTINPVEADDTANYYCQQSNEFPYTFGQGTKLEIK , write its reported Relative binding activity, %.
Response: 71

Query: Indicate its recorded Relative binding activity, %; the binder in question is hu149 (antibody, V domains shown, 3E5 HC-1/1F5 LC1-2) VH: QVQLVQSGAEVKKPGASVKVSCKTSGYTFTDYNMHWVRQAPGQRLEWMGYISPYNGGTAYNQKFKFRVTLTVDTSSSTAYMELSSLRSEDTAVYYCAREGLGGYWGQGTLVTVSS VL: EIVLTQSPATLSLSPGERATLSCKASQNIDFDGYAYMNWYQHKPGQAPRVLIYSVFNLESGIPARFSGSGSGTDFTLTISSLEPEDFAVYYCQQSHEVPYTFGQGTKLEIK
Response: 91
